- assay_details: MDCK cell permeability assay
- Format: in vitro ADME, canine
- test_parameters: dog, MDCK-MDR1; MDCK MDR-1 monolayer, class
Quick reference: Papp A→B at 30 min, 10 μM of the listed items.
measured_parameter: Papp A→B at 30 min, 10 μM

[
  {
    "molecule": "Oc1ccc(Br)c2c1C(Cc1ccc3c(c1)OCO3)NCC2 (centres unmarked) [Compound 28]",
    "test_value": "< 2 ×10⁻⁶ cm/s"
  },
  {
    "molecule": "Oc1ccc(Br)c2c1C(c1cccc3c1OCO3)NCC2 (centres unmarked) [Compound 35]",
    "test_value": "2 to 20 ×10⁻⁶ cm/s"
  }
]
